- assayed-target: T1, cynomolgus monkey IL-6 (Macaca fascicularis, UniProt P79341)
- T1 construct: His
- T1 sequence (P79341 28-212): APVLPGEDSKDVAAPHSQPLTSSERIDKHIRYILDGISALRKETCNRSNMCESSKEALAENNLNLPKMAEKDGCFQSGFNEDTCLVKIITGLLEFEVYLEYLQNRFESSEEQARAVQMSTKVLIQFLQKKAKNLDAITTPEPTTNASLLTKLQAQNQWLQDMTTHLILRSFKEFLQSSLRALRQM
- assay: Surface plasmon resonance (Biacore), cynomolgus monkey IL-6
- Format: binding
- measurement-parameters: cy/cyno; periplasmic fractions, 28A6 chain-shuffled
measured-parameter: ka
Remember to quote the unit after the number.

Worked cases, answers included:
molecule="55A11d: 28A6 chain-shuffled Fab, periplasmic fraction (antibody, V domains shown) VH: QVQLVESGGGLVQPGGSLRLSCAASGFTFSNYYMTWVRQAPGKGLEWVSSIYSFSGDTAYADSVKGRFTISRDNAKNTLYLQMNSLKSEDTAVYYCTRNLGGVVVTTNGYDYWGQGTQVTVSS VL: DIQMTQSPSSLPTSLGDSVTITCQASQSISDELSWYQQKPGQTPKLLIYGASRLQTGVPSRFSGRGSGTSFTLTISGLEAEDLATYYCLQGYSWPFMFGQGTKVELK" value_measured="144000 M⁻¹ s⁻¹"
molecule="48H1g2, R4: 28A6 chain-shuffled Fab, periplasmic fraction (antibody, V domains shown) VH: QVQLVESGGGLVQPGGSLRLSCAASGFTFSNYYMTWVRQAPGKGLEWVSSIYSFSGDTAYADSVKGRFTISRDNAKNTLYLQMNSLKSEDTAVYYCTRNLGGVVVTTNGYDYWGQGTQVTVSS VL: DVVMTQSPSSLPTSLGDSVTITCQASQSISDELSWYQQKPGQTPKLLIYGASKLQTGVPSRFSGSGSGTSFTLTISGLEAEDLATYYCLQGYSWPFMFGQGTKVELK" value_measured="112000 M⁻¹ s⁻¹"

Switching to the query record.
input: Return the recorded ka value; entry: 55C11f: 28A6 chain-shuffled Fab, periplasmic fraction (antibody, V domains shown) VH: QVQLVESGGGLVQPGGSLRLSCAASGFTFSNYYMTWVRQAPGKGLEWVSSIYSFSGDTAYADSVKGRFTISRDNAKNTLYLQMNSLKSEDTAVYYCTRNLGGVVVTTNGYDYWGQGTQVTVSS VL: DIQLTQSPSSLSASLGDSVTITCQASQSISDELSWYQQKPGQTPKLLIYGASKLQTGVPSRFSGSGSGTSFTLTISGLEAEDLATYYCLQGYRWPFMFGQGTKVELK
output: 285000 M⁻¹ s⁻¹
